assay_system: CYP1A1 (Homo sapiens)
Sequence (P04798 whole entry): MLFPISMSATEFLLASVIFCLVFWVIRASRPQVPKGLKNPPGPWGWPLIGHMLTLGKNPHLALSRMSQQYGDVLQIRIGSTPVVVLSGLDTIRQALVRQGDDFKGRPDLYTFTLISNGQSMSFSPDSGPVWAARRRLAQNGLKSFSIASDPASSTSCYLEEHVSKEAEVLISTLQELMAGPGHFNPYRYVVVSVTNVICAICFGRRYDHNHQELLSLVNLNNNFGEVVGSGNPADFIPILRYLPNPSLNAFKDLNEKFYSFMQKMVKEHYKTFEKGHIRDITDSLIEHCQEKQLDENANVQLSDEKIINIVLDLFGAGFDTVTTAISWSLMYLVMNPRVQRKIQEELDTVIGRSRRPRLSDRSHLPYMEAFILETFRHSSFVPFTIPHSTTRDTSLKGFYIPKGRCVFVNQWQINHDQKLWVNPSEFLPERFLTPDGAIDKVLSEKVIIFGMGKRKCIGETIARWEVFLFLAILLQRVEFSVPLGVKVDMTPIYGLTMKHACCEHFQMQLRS
test_protocol: Substrate activity at recombinant human CYP1A1 expressed in baculovirus infected insect cells assessed as parent compound remaining at 1 uM incubated for 60 mins in absence of NADP+-regenerating system by LC-MS analysis
Type: ADME
stated_conditions: read-out: Stability
value_type: remaining at 1 h, 1 µM (%)

* C[C@@H]1COCCN1c1nc(-c2cnc(N)cn2)nc2c1C[C@@H]1COCCN21 | 96
* C[C@@H]1COCCN1c1nc(-c2cnc(N)nc2)nc2c1C[C@@H]1COCCN21 | 93
* C[C@@H]1COCCN1c1nc(-c2ccc(N)nc2)nc2c1C[C@@H]1COCCN21 | 109

====

test_protocol: Stability in Beagle dog hepatocytes assessed as parent compound remaining at 5 uM after 3 hrs by LC-MS analysis
Assay type: ADME, cell-based, Canis lupus familiaris, Hepatocyte
stated_conditions: read-out: Stability
value_type: remaining at 3 h, 5 µM (%)

- C[C@@H]1COCCN1c1nc(-c2cnc(N)nc2)nc2c1C[C@@H]1COCCN21: 93

====

test_protocol: Stability in CD-1 mouse hepatocytes assessed as parent compound remaining at 5 uM after 3 hrs by LC-MS analysis
Format: ADME, cell-based, Hepatocyte
stated_conditions: read-out: Stability
value_type: remaining at 3 h, 5 µM (%)

* C[C@@H]1COCCN1c1nc(-c2cnc(N)nc2)nc2c1C[C@@H]1COCCN21 | 81.2

====

Entries and their Ki
assay_system: Serine/threonine-protein kinase mTOR (Homo sapiens, UniProt P42345)
test_protocol: Inhibition of alexa fluor 647-labeled kinase tracer 314 binding to recombinant human N-terminal GST-fused mTOR (1360 to 2549 residues) expressed in baculovirus expression system by TR-FRET assay
value_type: Ki (nM)

* C[C@@H]1COCCN1c1nc(-c2ccc(N)nc2)nc2c1C[C@@H]1COCCN21 | 13
* COC(OC)c1nc(N)ncc1-c1nc2c(c(N3CCOC[C@H]3C)n1)C[C@@H]1COCCN21 | 34
* CC1(C)COCCN1c1nc(-c2ccc(N)nc2)nc2c1C[C@H]1COCCN21 | 121
* Nc1ccc(-c2nc(N3C4CCC3COC4)c3c(n2)N2CCOC[C@@H]2C3)cn1 | 60
* Nc1ccc(-c2nc(N3CCOCC3)nc3c2C[C@@H]2COCCN32)cn1 | 1280
* Cc1cc(N)ncc1-c1nc2c(c(N3CCOC[C@H]3C)n1)C[C@@H]1COCCN21 | 85
* Nc1ccc(-c2nc(N3CCOCC3)c3c(n2)N2CCOC[C@H]2C3)cn1 | 24
* C[C@H]1COCCN1c1nc(-c2ccc(N)nc2)nc2c1C[C@H]1COCCN21 | 104
* Cc1cc(-c2nc3c(c(N4CCOC[C@H]4C)n2)C[C@@H]2COCCN32)cnc1N | 56
* Nc1ccc(-c2nc(N3CCOCC3)c3c(n2)N2CCOC[C@@H]2C3)cn1 | 69
* COc1cc(N)ncc1-c1nc2c(c(N3CCOC[C@H]3C)n1)C[C@@H]1COCCN21 | 208
* COC(OC)c1cc(N)ncc1-c1nc2c(c(N3CCOC[C@H]3C)n1)C[C@@H]1COCCN21 | 300
* C[C@@H]1COCCN1c1nc(-c2cnc(N)cn2)nc2c1C[C@@H]1COCCN21 | 8
* Nc1ccc(-c2nc(N3CCOCC3)nc3c2C[C@H]2COCCN32)cn1 | 812
* Nc1ccc(-c2nc(N3CC4CCC(C3)O4)c3c(n2)N2CCOC[C@@H]2C3)cn1 | 96
* C[C@@H]1COCCN1c1nc(-c2cnc(N)nc2)nc2c1C[C@@H]1COCCN21 | 2.5
* CC1(C)COCCN1c1nc(-c2ccc(N)nc2)nc2c1C[C@@H]1COCCN21 | 24
* C[C@@H]1COCCN1c1nc(-c2ccc(N)nc2)nc2c1C[C@H]1COCCN21 | 31
* C[C@H]1COCCN1c1nc(-c2ccc(N)nc2)nc2c1C[C@@H]1COCCN21 | 9.1
* Nc1ccc(-c2nc(N3C4CCC3COC4)c3c(n2)N2CCOC[C@H]2C3)cn1 | 31
* Nc1ccc(-c2nc(N3CC4CCC(C3)O4)c3c(n2)N2CCOC[C@H]2C3)cn1 | 27
